Exercise: state measured IC50 for each of the compounds provided.
- EXPERIMENTAL_SYSTEM: SARS-CoV-2 3CL-protease (Severe acute respiratory syndrome coronavirus 2 (2019-nCoV) (SARS-CoV-2), UniProt P0DTD1)
- ASSAY: SARS-CoV-2 3C-like (3CL) protease fluorescence assay (FRET)
- Type: biochemical
- RUN_PARAMETERS: read-out: FRET IC50

A selection of reference data follows.
CN(C(=O)c1cc2c(F)cc(F)cc2[nH]1)[C@@H](CC1CC1)C(=O)N1C[C@]2(C[C@H]1C#N)C(=O)Nc1ccccc12 [Compound 115] :: < 100 nM
CC(C)C[C@@H](C(=O)N1C[C@]2(C[C@H]1C#N)C(=O)Nc1ccccc12)N(C)C(=O)c1cc2c(Cl)cc(Cl)cc2[nH]1 [Compound 74] :: < 100 nM
COc1cccc2[nH]c(C(=O)N[C@@H](CC(C)C)C(=O)N3C[C@]4(C[C@H]3C=O)C(=O)Nc3ccccc34)cc12 [Compound 23] :: < 100 nM
CC(C)C[C@@H](C(=O)N1C[C@]2(C[C@H]1C#N)C(=O)Nc1ccccc12)N(C)C(=O)c1cc2c(F)c(Cl)ccc2[nH]1 [Compound 73] :: < 100 nM
CN(C(=O)OCc1ccccc1)[C@@H](CC1CCC1)C(=O)N1C[C@]2(C[C@H]1C#N)C(=O)Nc1ccccc12 [Compound 89] :: < 100 nM

Attention now shifts to the item below.
Ask: Form field: reported IC50 of COc1cccc2[nH]c(C(=O)N[C@@H](CC(C)C)C(=O)N3C[C@]4(C[C@H]3C=O)C(=O)N(C)c3ccccc34)cc12 [Compound 119]
Reply: < 100 nM
